Tested on: Human immunodeficiency virus 1
Experiment: Antiviral activity against HIV1 multi PI resistant strain 4596
Assay type: functional, organism-based
Conditions: Human immunodeficiency virus 1, 4596
Kindly supply the reported pEC50 values for the records listed here.
Conceptually, pEC50 converts a concentration in mol/L into minus its log10.

q: Which pEC50 is reported for this molecule? "CC(C)CN([C@H](CO)CCCCNC(=O)[C@@H](NC(=O)c1ccc([N+](=O)[O-])c(O)c1)C(c1ccccc1)c1ccccc1)S(=O)(=O)c1ccc(N)cc1"
a: 8.00

q: Further, for "CC(C)CN([C@H](CO)CCCCNC(=O)[C@@H](NC(=O)Cc1cccnc1)C(c1ccccc1)c1ccccc1)S(=O)(=O)c1ccc(N)cc1" ?
a: 6.89

q: Further, for "CC(C)CN([C@H](CO)CCCCNC(=O)[C@@H](NC(=O)OCc1cccnc1)C(c1ccccc1)c1ccccc1)S(=O)(=O)c1ccc(N)cc1" ?
a: 7.74

q: Further, for "CC(C)CN([C@H](CO)CCCCNC(=O)[C@@H](NC(=O)c1ccc[nH]1)C(c1ccccc1)c1ccccc1)S(=O)(=O)c1ccc(N)cc1" ?
a: 7.29

q: Further, for "CC(C)CN([C@H](CO)CCCCNC(=O)[C@@H](NC(=O)c1ccc(O)c([N+](=O)[O-])c1)C(c1ccccc1)c1ccccc1)S(=O)(=O)c1ccc(N)cc1" ?
a: 7.46

q: Further, for "COC(=O)N[C@H](C(=O)NCCCC[C@@H](CO)N(CC(C)C)S(=O)(=O)c1ccc(N)cc1)C(c1ccccc1)c1ccccc1" ?
a: 7.42

q: Further, for "CC(C)CN([C@H](CO)CCCCNC(=O)[C@@H](NC(=O)N(C)C)C(c1ccccc1)c1ccccc1)S(=O)(=O)c1ccc(N)cc1" ?
a: 7.25

q: Further, for "CC(C)CN([C@H](CO)CCCCNC(=O)[C@@H](NC(=O)c1cccc(O)c1)C(c1ccccc1)c1ccccc1)S(=O)(=O)c1ccc(N)cc1" ?
a: 7.52

q: Further, for "Cc1ncccc1C(=O)N[C@H](C(=O)NCCCC[C@@H](CO)N(CC(C)C)S(=O)(=O)c1ccc(N)cc1)C(c1ccccc1)c1ccccc1" ?
a: 7.44

q: Further, for "CC(C)CN([C@H](CO)CCCCNC(=O)[C@@H](NC(=O)c1cccnc1)C(c1ccccc1)c1ccccc1)S(=O)(=O)c1ccc(N)cc1" ?
a: 7.60

q: Further, for "COc1cc(C(=O)N[C@@H](C(=O)NCCCC[C@@H](CO)N(CC(C)C)S(=O)(=O)c2ccc(N)cc2)C(c2ccccc2)c2ccccc2)ccc1O" ?
a: 7.64

q: Further, for "CC(C)CN([C@H](CO)CCCCNC(=O)[C@@H](NC(=O)c1ccc(O)cc1)C(c1ccccc1)c1ccccc1)S(=O)(=O)c1ccc(N)cc1" ?
a: 7.47

q: Further, for "CC(C)CN([C@H](CO)CCCCNC(=O)[C@@H](NC(=O)OCc1ccncc1)C(c1ccccc1)c1ccccc1)S(=O)(=O)c1ccc(N)cc1" ?
a: 7.89

====

Molecular target: Human immunodeficiency virus type 1 protease (Human immunodeficiency virus 1, UniProt Q72874)
Assay: Inhibition of HIV aspartyl protease
Kindly supply the reported pIC50 values for the records listed here.
Conceptually, pIC50 converts a concentration in mol/L into minus its log10.

q: Which pIC50 is reported for this compound? "CC(C)CN([C@H](CO)CCCCNC(=O)[C@@H](NC(=O)c1ccc(O)c([N+](=O)[O-])c1)C(c1ccccc1)c1ccccc1)S(=O)(=O)c1ccc(N)cc1"
a: 9.25

q: Further, for "CC(C)CN([C@H](CO)CCCCNC(=O)[C@@H](NC(=O)c1ccccc1O)C(c1ccccc1)c1ccccc1)S(=O)(=O)c1ccc(N)cc1" ?
a: 9.20

q: Further, for "CC(C)CN([C@H](CO)CCCCNC(=O)[C@@H](NC(=O)c1cnccc1O)C(c1ccccc1)c1ccccc1)S(=O)(=O)c1ccc(N)cc1" ?
a: 9.30

q: Further, for "COC(=O)N[C@H](C(=O)NCCCC[C@@H](CO)N(CC(C)C)S(=O)(=O)c1ccc(N)cc1)C(c1ccccc1)c1ccccc1" ?
a: 9.30

q: Further, for "CC(C)CN([C@H](CO)CCCCNC(=O)[C@@H](NC(=O)N1CCOCC1)C(c1ccccc1)c1ccccc1)S(=O)(=O)c1ccc(N)cc1" ?
a: 9.29

q: Further, for "COC(=O)N[C@H](Cc1cccc2ccccc12)C(=O)NCCCC[C@@H](CO)N(CC(C)C)S(=O)(=O)c1ccc(N)cc1" ?
a: 8.92

q: Further, for "COc1cc(C(=O)N[C@@H](C(=O)NCCCC[C@@H](CO)N(CC(C)C)S(=O)(=O)c2ccc(N)cc2)C(c2ccccc2)c2ccccc2)ccc1O" ?
a: 9.30

q: Further, for "COC(=O)N[C@H](CCc1ccccc1)C(=O)NCCCC[C@@H](CO)N(CC(C)C)S(=O)(=O)c1ccc(N)cc1" ?
a: 7.40

q: Further, for "CC(C)CN([C@H](CO)CCCCNC(=O)[C@@H](NC(=O)OCc1ccccn1)C(c1ccccc1)c1ccccc1)S(=O)(=O)c1ccc(N)cc1" ?
a: 9.92

q: Further, for "CC(C)CN([C@H](CO)CCCCNC(=O)[C@@H](NC(=O)C1CC1)C(c1ccccc1)c1ccccc1)S(=O)(=O)c1ccc(N)cc1" ?
a: 9.37

q: Further, for "CC(C)CN([C@H](CO)CCCCNC(=O)[C@@H](NC(=O)c1ccc([N+](=O)[O-])c(O)c1)C(c1ccccc1)c1ccccc1)S(=O)(=O)c1ccc(N)cc1" ?
a: 9.48

q: Further, for "CC(C)CN([C@H](CO)CCCCNC(=O)[C@@H](NC(=O)c1cccnc1)C(c1ccccc1)c1ccccc1)S(=O)(=O)c1ccc(N)cc1" ?
a: 9.17

q: Further, for "CC(C)CN([C@H](CO)CCCCNC(=O)[C@@H](NC(=O)N(C)C)C(c1ccccc1)c1ccccc1)S(=O)(=O)c1ccc(N)cc1" ?
a: 9.36

q: Further, for "CC(C)CN([C@H](CO)CCCCNC(=O)[C@@H](NC(=O)OCc1cccnc1)C(c1ccccc1)c1ccccc1)S(=O)(=O)c1ccc(N)cc1" ?
a: 9.32

q: Further, for "CC(C)CN([C@H](CO)CCCCNC(=O)[C@@H](NC(=O)c1ncccc1O)C(c1ccccc1)c1ccccc1)S(=O)(=O)c1ccc(N)cc1" ?
a: 9.05

q: Further, for "CC(C)CN([C@H](CO)CCCCNC(=O)[C@@H](N)C(c1ccccc1)c1ccccc1)S(=O)(=O)c1ccc(N)cc1" ?
a: 9.30

q: Further, for "COC(=O)N[C@H](Cc1ccccc1-c1ccccc1)C(=O)NCCCC[C@@H](CO)N(CC(C)C)S(=O)(=O)c1ccc(N)cc1" ?
a: 9.28

q: Further, for "COC(=O)N[C@H](Cc1ccc2ccccc2c1)C(=O)NCCCC[C@@H](CO)N(CC(C)C)S(=O)(=O)c1ccc(N)cc1" ?
a: 8.92

q: Further, for "CC(C)CN([C@H](CO)CCCCNC(=O)[C@@H](NC(=O)Cc1cccnc1)C(c1ccccc1)c1ccccc1)S(=O)(=O)c1ccc(N)cc1" ?
a: 9.62

q: Further, for "COC(=O)N[C@@H](C(=O)NCCCC[C@@H](CO)N(CC(C)C)S(=O)(=O)c1ccc(N)cc1)C(c1ccccc1)c1ccccc1" ?
a: 7.89

q: Further, for "COC(=O)N[C@H](Cc1ccccc1)C(=O)NCCCC[C@@H](CO)N(CC(C)C)S(=O)(=O)c1ccc(N)cc1" ?
a: 7.92

q: Further, for "COC(=O)N(C)[C@H](Cc1ccccc1)C(=O)NCCCC[C@@H](CO)N(CC(C)C)S(=O)(=O)c1ccc(N)cc1" ?
a: 8.19

q: Further, for "CC(C)CN([C@H](CO)CCCCNC(=O)[C@@H](NC(=O)c1ccc(O)cc1)C(c1ccccc1)c1ccccc1)S(=O)(=O)c1ccc(N)cc1" ?
a: 9.28

q: Further, for "CC(C)CN([C@H](CO)CCCCNC(=O)[C@@H](NC(=O)c1cccc(O)c1)C(c1ccccc1)c1ccccc1)S(=O)(=O)c1ccc(N)cc1" ?
a: 9.40
